Molecular target: KRas (Homo sapiens (Human), UniProt P01116)
Sequence (P01116-2 other isoform, or with tags, fused parts or gaps): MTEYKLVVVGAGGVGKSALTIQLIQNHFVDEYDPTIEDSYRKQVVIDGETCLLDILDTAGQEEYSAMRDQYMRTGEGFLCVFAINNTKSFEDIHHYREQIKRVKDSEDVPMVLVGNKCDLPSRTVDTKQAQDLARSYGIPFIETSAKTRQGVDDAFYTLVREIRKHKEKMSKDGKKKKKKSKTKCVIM
Sorting guide: entries reporting IC50 beneath 0.6 nM go in the MET pile, the rest go in the NOT MET pile.

| Compound | Assigned label |
| --- | --- |
| Cc1cc(N)nc(-c2cc3ncnc4c3c(c2Cl)OCCN4Cc2cncc(O)c2)c1C(F)(F)F | NOT MET |

In: I wonder whether Cc1cc(N)nc(-c2c(Cl)c3c4c(nc(OC[C@@H]5CC(F)(F)CN5C)nc4c2F)N([C@H](C)c2cncc(N)c2)CCO3)c1C(F)(F)F (single isomer, unassigned) [Example 70a] has IC50 below 0.6 nM. Can you tell?
Out: NOT MET

In: Follow-up entry: Cc1cc(N)nc(-c2c(Cl)c3c4c(nc(OC[C@@H]5CCN5CC(F)F)nc4c2F)N([C@H](C)c2cncnc2N)CCO3)c1C(F)(F)F (atropisomer, axis not shown) [Example 84a]
Out: MET

In: Proceed to CNc1cncc(CN2CCOc3c(Cl)c(-c4nc(N)cc(C)c4C(F)(F)F)cc4ncnc2c34)c1
Out: NOT MET
